test: AUC in rat at 2 mg/kg, iv and 5 mg/kg, po; type: ADME, organism-based; conditions: plasma
Assay Readout: AUC

Observe how each entry below is paired with its result.
Cc1cc(CN2C(=O)C(C3=NS(=O)(=O)c4c(CNS(N)(=O)=O)cccc43)=C(O)[C@@H]2C(C)(C)C)ccc1F :: 102 ng·h/mL
Cc1cc(CN2C(=O)C(C3=NS(=O)(=O)c4c(CN(C)S(C)(=O)=O)cccc43)=C(O)[C@@H]2C(C)(C)C)ccc1F :: 582 ng·h/mL

Could you now consider this next compound?
Record `Cc1cc(CN2C(=O)C(C3=NS(=O)(=O)c4c(CNS(C)(=O)=O)cccc43)=C(O)[C@@H]2C(C)(C)C)ccc1F` . Reported AUC: 2750 ng·h/mL

====

system: Hepatitis C virus; assay: Selectivity ratio, EC50 for HCV1b in presence of 40% human serum to EC50 for HCV1b in presence of 5% fetal bovine serum; type: functional, Hepacivirus hominis, genotype 1b
Assay Readout: Ratio IC50

CC(C)(C)[C@H]1C(O)=C(C2=NS(=O)(=O)c3c(CNS(N)(=O)=O)cccc32)C(=O)N1Cc1ccc(F)cc1 :: 12.4
Cc1cc(CN2C(=O)C(C3=NS(=O)(=O)c4c(CNS(N)(=O)=O)cccc43)=C(O)[C@@H]2C(C)(C)C)ccc1F :: 15.3
Cc1cc(CN2C(=O)C(C3=NS(=O)(=O)c4c(CNS(C)(=O)=O)cccc43)=C(O)[C@@H]2C(C)(C)C)ccc1F :: 31.3

Could you now consider this next molecule?
`CN(Cc1cccc2c1S(=O)(=O)N=C2C1=C(O)[C@H](C(C)(C)C)N(Cc2ccc(F)cc2)C1=O)S(N)(=O)=O` on Hepatitis C virus gives Ratio IC50 = 5.9

====

tested on: Hepatitis C virus; test: Antiviral activity against HCV1b infected in human 2209-23 cells assessed as inhibition of virus RNA replication by Renilla luciferase reporter gene assay in presence of 5% fetal bovine serum; assay type: functional, organism-based, Hepacivirus hominis; settings: genotype 1b
Assay Readout: EC50 (nM)
Note: unit nM is implicit; provide only the numeric part.

Observe how each entry below is paired with its result.
CC(C)(C)[C@H]1C(O)=C(C2=NS(=O)(=O)c3c(CCS(C)(=O)=O)cccc32)C(=O)N1Cc1ccc(F)cc1 :: 282
CC(C)(C)[C@H]1C(O)=C(C2=NS(=O)(=O)c3c(OCS(N)(=O)=O)cccc32)C(=O)N1Cc1ccc(F)cc1 :: 228
CC(C)(C)[C@H]1C(O)=C(C2=NS(=O)(=O)c3c(CNS(C)(=O)=O)cccc32)C(=O)N1Cc1ccc(F)cc1 :: 100

Could you now consider this next molecule?
Record `Cc1cc(CN2C(=O)C(C3=NS(=O)(=O)c4c(CN(C)S(C)(=O)=O)cccc43)=C(O)[C@@H]2C(C)(C)C)ccc1F` . Reported EC50: 129
